- system.tested: UniProt:O60674
- method.summary: JAK enzymatic assay (peptide mobility shift), JAK2
- Type: biochemical
- conditions: recombinant JAK2 2 nM, JAKtide peptide, 150 minutes
- Experimental: Recombinant JAK1 (Catalog Number PV4775), JAK2 (Catalog Number PV4210) and JAK3 (Catalog Number PV3855) were purchased from (Invitrogen Corporation, Madison, Wis.). […] A peptide mobility shift assay was used to quantify the phosphorylation of the JAKtide (JAK2 and JAK3) or the IRS-1 peptide (JAK1 and Tyk2). […] Data was analyzed using Hits Well Analyzer Software from (Caliper Life Sciences) to obtain the amount of product formed. […]
measured.quantity: IC50 (nM)

compound	IC50, nM
CN(c1ncnc2[nH]ccc12)[C@H]1CC[C@H](CS(=O)(=O)N2C[C@@H](O)[C@@H](O)C2)CC1	8.54

I = CN(c1ncnc2[nH]ccc12)[C@H]1CC[C@H](CS(=O)(=O)N2CCC(Cc3ncccn3)CC2)CC1
II = CN(c1ncnc2[nH]ccc12)[C@H]1CC[C@H](CS(=O)(=O)N2CC[C@H](c3ccccn3)C2)CC1
Short answer wanted: higher IC50, I or II ? To answer, give the label that identifies your chosen option. I

* * *

- system.tested: JAK2 (Homo sapiens (Human), UniProt O60674)
- Sequence (O60674 808-1132): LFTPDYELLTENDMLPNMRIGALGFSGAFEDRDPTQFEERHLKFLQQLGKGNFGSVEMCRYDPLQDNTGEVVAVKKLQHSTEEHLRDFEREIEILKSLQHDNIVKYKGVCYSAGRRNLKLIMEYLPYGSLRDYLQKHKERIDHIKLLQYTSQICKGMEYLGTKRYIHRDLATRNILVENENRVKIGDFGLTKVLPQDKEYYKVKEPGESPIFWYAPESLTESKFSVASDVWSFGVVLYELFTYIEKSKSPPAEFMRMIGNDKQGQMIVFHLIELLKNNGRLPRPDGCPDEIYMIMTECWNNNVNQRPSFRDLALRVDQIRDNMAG
- method.summary: JAK enzymatic assay (peptide mobility shift), JAK2
- conditions: recombinant JAK2 2 nM, JAKtide peptide, 150 minutes
pIC50: −log10 of the molar value.
measured.quantity: pIC50

Take a look at these entries with their results.
molecule	pIC50
CN(c1ncnc2[nH]ccc12)[C@H]1CC[C@H](CS(=O)(=O)N2CC(S(=O)(=O)CC3CC3)C2)CC1	7.30
COC1CCN(S(=O)(=O)C[C@H]2CC[C@H](N(C)c3ncnc4[nH]ccc34)CC2)CC1	6.97

a = CC(=O)C1CCCN(S(=O)(=O)C[C@H]2CC[C@H](N(C)c3ncnc4[nH]ccc34)CC2)C1 (some centres unmarked)
b = CC(C)COC1CCCN(S(=O)(=O)C[C@H]2CC[C@H](N(C)c3ncnc4[nH]ccc34)CC2)C1 (some centres unmarked)
c = CN(c1ncnc2[nH]ccc12)[C@H]1CC[C@H](CS(=O)(=O)N2CCCC(O)(COc3cccc(F)c3)C2)CC1 (some centres unmarked)
d = CN(c1ncnc2[nH]ccc12)[C@H]1CC[C@H](CS(=O)(=O)N2CCC(CC(N)=O)CC2)CC1
Parameters: sort_field (pIC50), sort_dir (desc). Lab note: final answer is the ordered label list. b, a, c, d
(b: 11.12, a: 7.66, c: 7.33, d: 7.07)

* * *

- system.tested: JAK3 (Homo sapiens (Human))
- Sequence (P52333 781-1124): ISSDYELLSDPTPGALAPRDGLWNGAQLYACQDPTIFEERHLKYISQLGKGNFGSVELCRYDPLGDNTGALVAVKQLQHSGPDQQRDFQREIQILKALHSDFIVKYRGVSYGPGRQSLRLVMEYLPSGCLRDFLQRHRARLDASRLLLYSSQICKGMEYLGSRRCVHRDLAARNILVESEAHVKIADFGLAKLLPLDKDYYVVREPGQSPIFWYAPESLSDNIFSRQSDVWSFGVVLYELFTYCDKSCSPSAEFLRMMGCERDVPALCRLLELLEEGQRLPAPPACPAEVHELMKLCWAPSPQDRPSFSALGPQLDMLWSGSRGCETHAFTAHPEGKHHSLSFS
- method.summary: JAK enzymatic assay (peptide mobility shift), JAK3
- conditions: recombinant JAK3 1 nM, JAKtide peptide, 90 minutes
measured.quantity: IC50 (nM)

Take a look at these entries with their results.
molecule	units.text	IC50
CO[C@@H]1CCCN(S(=O)(=O)C[C@H]2CC[C@H](N(C)c3ncnc4[nH]ccc34)CC2)C1	nM	203
CN(c1ncnc2[nH]ccc12)[C@H]1CC[C@H](CS(=O)(=O)N2CC[C@@H](CC#N)C2)CC1	nM	447

a = CN(c1ncnc2[nH]ccc12)[C@H]1CC[C@H](CS(=O)(=O)N2CCC(CS(=O)(=O)CC3CC3)CC2)CC1
b = CN(c1ncnc2[nH]ccc12)[C@H]1CC[C@H](CS(=O)(=O)N2CCCC(F)C2)CC1 (stereo partly drawn)
c = CN(c1ncnc2[nH]ccc12)[C@H]1CC[C@H](CS(=O)(=O)N2CCCC(C(=O)O)C2)CC1 (stereo partly drawn)
d = CN(c1ncnc2[nH]ccc12)[C@H]1CC[C@H](CS(=O)(=O)N2CC[C@H](Cc3ccccc3)C2)CC1
Could you please order the items by IC50, going from the lowest number to the highest? Lab note: final answer is the ordered label list. c, b, a, d
